- Test system: A549
- assay.remarks: NCI tumour cell line growth inhibition, 48 h
Calls of active or inactive are those of the source. Cut-off read from the data, not from the text of the source: active = GI50 up to about 1.1 µM and inactive = higher.

# molecule, tested.on, GI50
rows = [
    ("COc1cc2c(c(O)c1OC)C(=O)[C@@H]1CCC(=O)N1C2", "A549", "> 100 µM (inactive)"),
    ("CC(=O)OC1COC(n2ccc3cc(Br)c([N+](=O)[O-])cc32)C(OC(C)=O)C1OC(C)=O (centres undefined)", "A549", "27.8 µM (inactive)"),
    ("N#CCCN(CCCN(C(=O)Nc1ccc(NC(=O)N(CCCN(CCC#N)C(N)=O)c2ccccc2)cc1)c1ccccc1)C(N)=O", "A549", "> 100 µM (inactive)"),
    ("N#C/C(=C\\c1cc(O)c(O)c(O)c1)C(N)=O", "A549", "> 100 µM (inactive)"),
    ("CC1(C)OC(=O)C(c2cccs2)C(=O)O1", "A549", "> 100 µM (inactive)"),
    ("O=C1CCSSCCC(=O)Nc2ccccc2N1", "A549", "> 100 µM (inactive)"),
    ("Brc1c2nc3ccccc3nc2n2ccc3ccccc3c12", "A549", "> 100 µM (inactive)"),
    ("COc1ccc(/N=C2\\C(=S)N(c3ccc(OC)cc3)/C(=N/S(=O)(=O)c3ccccc3)N2c2ccccc2)cc1", "A549", "34.9 µM (inactive)"),
    ("O=C(CC(=O)N(C(=O)c1ccccc1)c1ccc(Cl)cc1)N/N=C\\c1ccccc1O", "A549", "82 µM (inactive)"),
    ("Cc1cc2c(cc1Cl)SC(NNc1ccc([N+](=O)[O-])cc1)=NS2(=O)=O", "A549", "> 10 µM (inactive)"),
    ("[O-][S+]1CC[S+]([O-])CC[S+]([O-])CC1 (centres undefined)", "A549", "> 100 µM (inactive)"),
    ("S=C(S)NCC1CCC(CNC(=S)S)CC1 (centres undefined)", "A549", "> 100 µM (inactive)"),
    ("COc1cc(C(CN)N(C)C)cc(OC)c1OC (centres undefined)", "A549", "> 100 µM (inactive)"),
    ("N=C(N)NS(=O)(=O)c1ccc(/N=N/c2c(O)c(C(=O)O)cc3ccccc23)cc1", "A549", "> 100 µM (inactive)"),
    ("COc1ccc(NC(=O)CC/C(CC(=O)C(C)(C)C)=N\\NC(=O)C(N)=O)cc1", "A549", "> 100 µM (inactive)"),
    ("CC(C)(C)C(=O)/C=C/c1cccc(Oc2ccccc2)c1", "A549", "21.1 µM (inactive)"),
    ("COC(NC(N)=O)C(=O)O (centres undefined)", "A549", "> 100 µM (inactive)"),
    ("Cn1ccnc1CC(C)(O)c1ccccc1 (centres undefined)", "A549", "> 100 µM (inactive)"),
    ("CSC1=C(C#N)C(=O)N(c2ccc(C)cc2)C(=S)C1C#N (centres undefined)", "A549", "> 100 µM (inactive)"),
    ("O=C(N/N=C/c1cccc(F)c1)c1ccncc1", "A549", "> 100 µM (inactive)"),
    ("CCN1C2=NCCN2S(=O)(=O)c2ccccc21", "A549", "> 100 µM (inactive)"),
    ("Cc1ccc(C(=O)Oc2ccccc2)cc1/N=N/N(C)C", "A549", "> 100 µM (inactive)"),
    ("CSCCC(NC(c1ccccc1)c1ccccc1)[PH](=O)O (centres undefined)", "A549", "> 100 µM (inactive)"),
    ("C=C1C(=O)C23CC1CCC2C12CO[C@@H]4OCC(C)(CC[C@@H]1OC3=O)C42 (some centres undefined)", "A549", "10.9 µM (inactive)"),
]
